Data origin: PubChem BioAssay

experiment: small-molecule binders of probe aNOTCH2, primary screen, biochemical, small-molecule microarray, 635/667 nm fluorescence (AID 1121); details: higher = more signal;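 further: score merges feature fluorescence read at 667 nm with its signal to noise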
PROPERTY NAME: composite z-score

>  <COMPOUND>
CC[C@@H](c1ccccc1)n1c(=O)n2n(c1=O)[C@H]1[C@H](O)[C@@H]3O[C@@H]3C(=O)[C@H]1CC2

>  <REPORTED RESULT>
-0.135

$$$$
>  <COMPOUND>
COC(=O)[C@H](C)NC(=O)CCC1CC(OC(=O)NCc2ccc3c(c2)OCO3)CC2(CCCC(COC(=O)NCC3CCCCC3)O2)O1 (stereo partly drawn)

>  <REPORTED RESULT>
-0.0947

$$$$
>  <COMPOUND>
CCOC(=O)NN=C1C[C@@H](O)[C@@H](O)[C@@H]2[C@@H]3C(=O)N(Cc4ccccc4)C(=O)[C@@H]3CC[C@H]12

>  <REPORTED RESULT>
-0.174

$$$$
>  <COMPOUND>
CON=CC[C@@H]1C=C[C@H](OC(C)=O)[C@@H](COC(C)=O)O1

>  <REPORTED RESULT>
0.0007

$$$$
>  <COMPOUND>
CO[C@H]1COC(=O)CC=C[C@H](C)[C@@H](OC)COC(=O)[C@H](C)COC(=O)CC=C[C@@H]1C

>  <REPORTED RESULT>
-0.133

$$$$
>  <COMPOUND>
O=c1n(-c2ccccc2)c(=O)n2n1CC[C@@H]1C(=NOCc3ccccc3)[C@H]3O[C@H]3[C@@H](O)[C@@H]12

>  <REPORTED RESULT>
-0.189

$$$$
>  <COMPOUND>
O=C(NN=C1C[C@@H](O)[C@@H](O)[C@@H]2[C@@H]3C(=O)N(Cc4ccccc4)C(=O)[C@@H]3CC[C@@H]12)OCc1ccccc1

>  <REPORTED RESULT>
-0.129

$$$$
>  <COMPOUND>
CCN1C(=O)[C@H]2[C@H]3[C@H](O)[C@H](O)CC(=O)[C@@H]3CC[C@H]2C1=O

>  <REPORTED RESULT>
-0.179

$$$$
